# Test System: wild-type human carbonic anhydrase II (hCAII) protein (human, UniProt P00918 4-259)
# Test Details: cell-based or functional assay
No end group written: not given here. M65 = not defined here; M67 = not defined here; M75 = not defined here; M76 = not defined here; M88 = not defined here
Could you please mark YES for values of NTM-AAEIR IC50 (µM), colorimetric IC50 assay below 0.07 µM and NO for values at or above it?

Check out these entries, answers already filled in.
# Binder, Qualitative Label
data = [
    ("M88-AAEIR (not fully specified; printed as M88-AAEIR; reading uncertain) [M88-AAEIR]", "NO"),
    ("M67-AAEIR (not fully specified; printed as M67-AAEIR; reading uncertain) [M67-AAEIR]", "NO"),
]

Lab log: compare recorded NTM-AAEIR IC50 (µM), colorimetric IC50 assay with 0.07 µM; is it strictly lower for M76-AAEIR (not fully specified; printed as M76-AAEIR; reading uncertain) [M76-AAEIR] ? NO

Lab log: compare recorded NTM-AAEIR IC50 (µM), colorimetric IC50 assay with 0.07 µM; is it strictly lower for M75-AAEIR (not fully specified; printed as M75-AAEIR; reading uncertain) [M75-AAEIR] ? YES

Lab log: compare recorded NTM-AAEIR IC50 (µM), colorimetric IC50 assay with 0.07 µM; is it strictly lower for M65-AAEIR (not fully specified; printed as M65-AAEIR; reading uncertain) [M65-AAEIR] ? NO
